Molecular target: integrin α4β7 (Homo sapiens, UniProt P13612+P26010)
Construct: lymphoma cell strain RPMI-8866 of human B cells, known to express integrin α4β7; endogenous in cells; host or cells: RPMI-8866 (human B lymphoma cell line)
Sequence (P13612 34-1032): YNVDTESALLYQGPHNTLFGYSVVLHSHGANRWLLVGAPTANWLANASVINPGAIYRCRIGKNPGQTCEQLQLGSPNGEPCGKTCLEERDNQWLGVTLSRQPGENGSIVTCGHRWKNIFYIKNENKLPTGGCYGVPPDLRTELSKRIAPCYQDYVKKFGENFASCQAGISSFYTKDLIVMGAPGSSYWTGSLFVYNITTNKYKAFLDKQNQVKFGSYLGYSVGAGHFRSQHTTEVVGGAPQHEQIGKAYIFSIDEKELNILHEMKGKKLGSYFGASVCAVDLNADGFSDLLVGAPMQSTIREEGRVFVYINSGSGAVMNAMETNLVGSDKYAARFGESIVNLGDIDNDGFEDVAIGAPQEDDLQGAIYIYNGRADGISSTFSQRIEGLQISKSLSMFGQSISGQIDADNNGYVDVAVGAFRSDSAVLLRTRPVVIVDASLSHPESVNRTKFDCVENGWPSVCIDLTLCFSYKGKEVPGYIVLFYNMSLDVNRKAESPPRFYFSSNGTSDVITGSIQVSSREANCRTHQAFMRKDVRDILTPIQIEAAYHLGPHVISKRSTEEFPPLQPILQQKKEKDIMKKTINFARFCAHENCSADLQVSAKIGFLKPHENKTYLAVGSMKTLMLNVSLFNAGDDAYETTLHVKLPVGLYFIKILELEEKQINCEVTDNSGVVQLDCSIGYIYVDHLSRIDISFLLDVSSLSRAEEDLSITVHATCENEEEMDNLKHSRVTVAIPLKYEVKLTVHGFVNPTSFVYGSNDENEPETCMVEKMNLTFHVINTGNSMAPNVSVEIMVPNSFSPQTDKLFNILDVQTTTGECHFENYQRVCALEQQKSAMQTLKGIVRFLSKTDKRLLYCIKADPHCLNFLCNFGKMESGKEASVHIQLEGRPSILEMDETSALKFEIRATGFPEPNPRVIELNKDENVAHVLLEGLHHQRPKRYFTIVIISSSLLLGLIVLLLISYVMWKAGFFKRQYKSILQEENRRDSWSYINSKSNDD
Sequence (P26010 20-798): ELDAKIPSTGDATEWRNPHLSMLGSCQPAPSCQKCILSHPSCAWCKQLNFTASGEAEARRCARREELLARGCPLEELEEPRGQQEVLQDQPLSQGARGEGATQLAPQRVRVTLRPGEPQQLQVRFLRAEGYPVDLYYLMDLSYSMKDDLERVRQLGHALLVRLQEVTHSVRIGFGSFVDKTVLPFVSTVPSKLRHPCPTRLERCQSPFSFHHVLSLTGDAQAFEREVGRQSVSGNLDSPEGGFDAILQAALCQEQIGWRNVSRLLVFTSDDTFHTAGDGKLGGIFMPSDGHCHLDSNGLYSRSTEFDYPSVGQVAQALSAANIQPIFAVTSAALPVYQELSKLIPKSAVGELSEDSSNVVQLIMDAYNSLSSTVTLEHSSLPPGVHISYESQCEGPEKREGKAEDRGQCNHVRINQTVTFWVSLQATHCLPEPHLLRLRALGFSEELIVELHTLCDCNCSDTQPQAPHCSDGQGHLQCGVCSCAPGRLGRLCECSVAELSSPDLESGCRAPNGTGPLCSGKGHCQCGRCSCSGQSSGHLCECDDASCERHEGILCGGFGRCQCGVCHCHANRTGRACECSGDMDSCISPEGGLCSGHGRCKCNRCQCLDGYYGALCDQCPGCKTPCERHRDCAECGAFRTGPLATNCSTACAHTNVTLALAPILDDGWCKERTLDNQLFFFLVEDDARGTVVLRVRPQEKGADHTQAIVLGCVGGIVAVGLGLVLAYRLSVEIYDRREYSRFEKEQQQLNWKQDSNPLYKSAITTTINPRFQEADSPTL
Assay: VCAM antagonistic activity (VCAM-1/α4β7 binding assay)
Format: cell-based
Conditions: RPMI-8866 cells binding to VCAM-1; read-out: VCAM antagonistic activity (IC50) α4β7
# reported IC50; entries follow
endpoint.name: IC50

[[record]]
compound = "CCC(CC)(C(=O)N[C@@H](Cc1ccc(OCc2c(Cl)cccc2Cl)cc1)C(=O)O)C(=O)N1CCC[C@H]1C(N)=O"
assayed_system = "integrin α4β7 (Homo sapiens, UniProt P13612+P26010)"
endpoint_name = "IC50"
reading = "20 to 100 nM"

[[record]]
compound = "O=C1CCN(C(=O)C2(C(=O)N[C@@H](Cc3ccc(OCc4c(Cl)cccc4Cl)cc3)C(=O)O)CC2)C1"
assayed_system = "integrin α4β7 (Homo sapiens, UniProt P13612+P26010)"
endpoint_name = "IC50"
reading = "20 to 100 nM"

[[record]]
compound = "CCC(CC)(C(=O)N[C@@H](Cc1ccc(OCc2c(Cl)cccc2Cl)cc1)C(=O)O)C(=O)N1CCN(C(C)=O)CC1"
assayed_system = "integrin α4β7 (Homo sapiens, UniProt P13612+P26010)"
endpoint_name = "IC50"
reading = "20 to 100 nM"

[[record]]
compound = "CCC(CC)(C(=O)N[C@@H](Cc1ccc(OCc2c(Cl)cccc2Cl)cc1)C(=O)O)C(=O)N1CCC(C(N)=O)CC1"
assayed_system = "integrin α4β7 (Homo sapiens, UniProt P13612+P26010)"
endpoint_name = "IC50"
reading = "20 to 100 nM"

[[record]]
compound = "CCC(CC)(C(=O)N[C@@H](Cc1ccc(OCc2c(Cl)cccc2Cl)cc1)C(=O)O)C(=O)N1CC[C@@H](NC(C)=O)C1"
assayed_system = "integrin α4β7 (Homo sapiens, UniProt P13612+P26010)"
endpoint_name = "IC50"
reading = "< 20 nM"

[[record]]
compound = "CCC(CC)(C(=O)N[C@@H](Cc1ccc(OCc2c(Cl)cccc2Cl)cc1)C(=O)O)C(=O)N1C[C@@H](O)[C@H](O)C1 (relative stereo)"
assayed_system = "integrin α4β7 (Homo sapiens, UniProt P13612+P26010)"
endpoint_name = "IC50"
reading = "< 20 nM"


These measurements were taken from patent US7160874B2.
